From: ChEMBL document CHEMBL1131994

target: Glutamate receptor ionotropic, NMDA 2C (Rattus norvegicus, UniProt P35439+Q00961); test: Compound was tested in vitro for inhibition of NMDA response at cloned NR1A/2C receptor expressed in Xenopus oocytes; format: cell-based, frog, Oocyte
Sequence (Q00961 whole entry, one chain of several): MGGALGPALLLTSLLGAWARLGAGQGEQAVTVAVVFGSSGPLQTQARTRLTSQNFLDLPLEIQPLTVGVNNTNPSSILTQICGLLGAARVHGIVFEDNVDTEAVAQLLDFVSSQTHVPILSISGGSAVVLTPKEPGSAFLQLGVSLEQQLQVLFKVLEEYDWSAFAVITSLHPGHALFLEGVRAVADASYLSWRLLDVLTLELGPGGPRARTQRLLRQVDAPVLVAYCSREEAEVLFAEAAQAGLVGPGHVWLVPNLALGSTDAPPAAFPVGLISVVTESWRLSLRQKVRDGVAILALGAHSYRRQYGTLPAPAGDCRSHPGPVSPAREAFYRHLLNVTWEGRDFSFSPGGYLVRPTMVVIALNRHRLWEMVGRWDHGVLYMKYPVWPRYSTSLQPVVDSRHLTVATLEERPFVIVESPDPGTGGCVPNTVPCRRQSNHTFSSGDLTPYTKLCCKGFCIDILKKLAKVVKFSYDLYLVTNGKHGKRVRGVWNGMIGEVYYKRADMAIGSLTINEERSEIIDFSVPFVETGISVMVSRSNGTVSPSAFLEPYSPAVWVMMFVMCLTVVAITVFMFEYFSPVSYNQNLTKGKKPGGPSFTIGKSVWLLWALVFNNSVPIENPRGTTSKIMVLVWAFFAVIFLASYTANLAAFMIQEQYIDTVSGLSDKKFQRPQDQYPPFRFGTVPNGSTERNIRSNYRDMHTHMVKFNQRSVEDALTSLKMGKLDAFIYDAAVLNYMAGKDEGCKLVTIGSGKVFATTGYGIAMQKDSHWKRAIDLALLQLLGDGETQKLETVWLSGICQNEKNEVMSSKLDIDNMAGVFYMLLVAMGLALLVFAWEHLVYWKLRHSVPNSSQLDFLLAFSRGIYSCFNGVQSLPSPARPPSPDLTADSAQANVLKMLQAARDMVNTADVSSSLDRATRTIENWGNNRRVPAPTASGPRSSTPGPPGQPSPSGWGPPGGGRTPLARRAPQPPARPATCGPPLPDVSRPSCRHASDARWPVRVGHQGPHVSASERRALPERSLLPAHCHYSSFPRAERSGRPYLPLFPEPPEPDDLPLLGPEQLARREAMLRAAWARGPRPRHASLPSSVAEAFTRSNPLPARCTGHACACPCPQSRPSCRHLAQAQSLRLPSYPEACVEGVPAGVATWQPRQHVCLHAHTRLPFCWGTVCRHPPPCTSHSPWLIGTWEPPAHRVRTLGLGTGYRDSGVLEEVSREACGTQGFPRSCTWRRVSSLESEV
pIC50: −log10 of the molar value.
METRIC NAME: pIC50

Answered cases to consult:
MOL	pIC50
OC1(c2ccccc2)CCN(CCC#Cc2c[nH]cn2)CC1	4.44
C(#Cc1cc[nH]c1)CN1CCC(Cc2ccccc2)CC1	4.25

(P) Cc1ccc(CC2CCN(CCC#Cc3c[nH]cn3)CC2)cc1
(Q) Clc1ccc(CC2CCN(CCC#Cc3cnc[nH]3)CC2)cc1
Incoming: Hi there, can you help? I need to know whether P or Q has lower measured pIC50. I would appreciate it if you answered with the label of your choice.
Outgoing: Q
